Value source: ChEMBL document CHEMBL3507680

experiment: Human HepG2 cell viability assay in 384 well format; format: toxicity, cell-based; set-up: dose 125 nL, time 70.5 hour; concentration not given beside the values; conditions: HepG2 cells, read-out: Inhibition
For each record, write down the corresponding cytotoxicity at 70.5 h.
Write the value in % as a bare number.

**Q:** Item `Cc1nc(CNC(=O)c2cc(COc3ccccc3)[nH]n2)n[nH]1` has what recorded cytotoxicity at 70.5 h?
**A:** -5.91

**Q:** Now consider CCCc1nc(CN2CCCCC2Cn2cncn2)cs1 (stereo unspecified) and answer again.
**A:** -7.91

**Q:** And Cn1cc(C2CCCN2C(=O)CCn2ccc3ccccc32)cn1 (stereo unspecified) ?
**A:** 3.44

**Q:** Would you kindly repeat that for `Cn1ncc2c1CCCN(C(=O)C1CCCC1)C2` ?
**A:** -0.407

**Q:** Try this compound next: CCNc1ncc(C(=O)NCC2OCCc3ccccc32)cn1 (stereo unspecified)
**A:** -3.21

**Q:** Repeat for the following compound: `CC(=O)N1CCO[C@@H]2CN(C(=O)c3ccccc3)CC[C@@H]2C1`
**A:** 13.4

----------
assay: Human HepG2 cell viability assay in 384 well format; assay type: toxicity, cell-based; set-up: dose 125 nL, time 70.5 hour; concentration not given beside the values; details: HepG2 cells, read-out: Inhibition
parameter: cytotoxicity at 70.5 h

**Q:** Quick check: cytotoxicity at 70.5 h of Cc1nn(C)c(C)c1C1CCCN1Cc1nc(-c2ccco2)no1 (stereo not drawn) ?
**A:** -19.8%

**Q:** And what about the molecule CC(C)CCC(C)NC(=O)Nc1ccccn1 (stereo not drawn) ?
**A:** -2.67%

**Q:** Another molecule to check: `COCCC(=O)N1CCC2(CCN(Cc3cccc(F)c3)CC2)C1`
**A:** -4.51%

**Q:** And the next one, `Cc1cc2c(=O)n3c(nc2s1)CCN(C(=O)c1ccnn1C(C)C)CC3` ?
**A:** -7.45%

**Q:** What do you get for `Cc1cnn(C2CN(CC(=O)NCCOc3ccccc3)C2)c1` ?
**A:** -4.92%

**Q:** Lookup CCCN1CCCC2(CCN(Cc3cncn3C3CCCCC3)C2)C1=O (stereo not drawn)
**A:** -7.64%

**Q:** Follow-up item: Cc1noc(C2CCCN(C(=O)c3cc(-c4ccccc4)on3)C2)n1 (stereo not drawn)
**A:** -20.7%

**Q:** How about `CC(C)C(=O)NCC(=O)N1CCC2(CC1)c1ccccc1[C@@H](N)[C@@H]2O` ?
**A:** 13.2%

**Q:** # iterate: CCC1(CC)CC(=O)N(CC(O)c2ccc(F)cc2)C1=O (stereo not drawn)
**A:** -9.84%

**Q:** Check Cc1nc(COc2ccc(OC3CCCCNC3=O)cc2)oc1C (stereo not drawn) too.
**A:** 1.82%

**Q:** Record: `COc1cccc(OCCCc2cc(C#N)ccn2)c1`
**A:** 11%

**Q:** And what about the molecule `CN(C)S(=O)(=O)Nc1ccc(Oc2ccc3c(c2)OCO3)cc1` ?
**A:** -5.35%

**Q:** Quick one: `COCCN1C[C@@H](C)[C@@]2(COCCN(C(=O)c3cccs3)C2)C1`
**A:** 1.58%

**Q:** // next record `CCc1ccc(C(=O)NCc2ccnc(N3CCN(C)CC3)c2)o1`
**A:** -7.44%

**Q:** Query COc1cccc(-c2cc(C3CCCNC3)ccn2)c1 (stereo not drawn) next
**A:** 3.19%

**Q:** Try this molecule next: `CN(CC(=O)N1CCCC1)C(=O)c1ccccc1Nc1ccccc1`
**A:** 18.3%

**Q:** Quick one: CN(Cc1ccco1)C(=O)CN1CCCCC1Cn1cccn1 (stereo not drawn)
**A:** -12.4%

**Q:** Would you mind doing `COc1ccc(CN2C[C@H]3CN(c4cncnc4)C(=O)[C@H]3C2)cc1` as well?
**A:** -5.39%

**Q:** // same read-out, input: `CNC(=O)Cc1noc(-c2cc3c(s2)CCCCCC3)n1`
**A:** -7.62%

**Q:** # iterate: `Cc1noc(CNc2ccccc2CC(=O)N(C)C)n1`
**A:** -4.56%

**Q:** Would you kindly repeat that for `CN(C)c1ccc(NC(=O)N2CCc3sccc3C2)cn1` ?
**A:** 4.85%

**Q:** Now the molecule `CN1[C@@H](C(=O)NCC2CC2)C[C@H]2CN(Cc3ccsc3)C[C@H]21`
**A:** 12.6%

**Q:** Now the same for `CC(C)(C)Nc1nc(-c2cccnc2)c(-c2ccnc(NCCO)n2)s1`
**A:** -9.49%

**Q:** // next record `CC(C)(O)CN1CC(C)(C)CN(C(=O)CCc2ccccc2)CC1=O`
**A:** -1.35%

**Q:** What do you get for `Cc1cc(NCc2nnc3n2CCCCC3)n2nc(C)c(C)c2n1` ?
**A:** -5.75%

**Q:** Would you kindly repeat that for `Cn1ncc(C(=O)N2CCOCC2)c1Cl` ?
**A:** -13.1%

**Q:** Entry `Cc1cc(CN(Cc2ccccc2)C2CC2)on1` please
**A:** -0.663%

**Q:** Likewise for `Cc1ccccc1N1CCN(C(=O)CSc2ccncc2)CC1=O` ?
**A:** -8.48%

**Q:** // next record `COc1ccc2nnc(CCCC(=O)NCCc3ccccn3)n2n1`
**A:** -3.59%

**Q:** Can you handle `CN(C)c1nccc(N2CCO[C@H]3CN(Cc4ccsc4)C[C@H]32)n1` next?
**A:** -6%

**Q:** Request: `CC(C)CN1C(=O)CC[C@H]2CN(C(=O)c3ncc[nH]3)CC[C@H]21`
**A:** -0.867%

**Q:** Repeat for the following molecule: Cc1ccc(CN2CCOC3(CCCN(c4cccc(F)c4)C3)C2)o1 (stereo not drawn)
**A:** -6.42%

**Q:** Then what about the molecule `O=C(N1CCOCC1)N1CCC2(CC1)CN(c1ccccn1)CCO2` ?
**A:** -6.33%

**Q:** Can you handle Cn1ccnc1CN1CCC(F)(F)C2(CCN(c3cccnc3)C2)C1 (stereo not drawn) next?
**A:** -8.56%

**Q:** Follow-up entry: Cc1ccc(CN2CCOC3(COCCN(CCN(C)C)C3)C2)o1 (stereo not drawn)
**A:** -7.86%

**Q:** Subsequent entry: CCN(CC1CCOC1)C(=O)NCc1nnc2n1CCCCC2 (stereo not drawn)
**A:** -7.23%

**Q:** Try this molecule next: Cc1nnc(CN2CCCC(c3noc(C4CC4)n3)C2)o1 (stereo not drawn)
**A:** -4.3%

**Q:** What about Cc1cn2c(n1)CCC(NC(=O)c1c[nH]c(C)n1)C2 (stereo not drawn) ?
**A:** -5.66%

**Q:** Likewise for CCc1cc(C(=O)N2CCCC(Cc3ccc(NC)nn3)C2)on1 (stereo not drawn) ?
**A:** 50.7%

**Q:** Try the molecule `O=C(NCc1cnc2n1CCN(Cc1cccs1)C2)c1ccno1`
**A:** 18.9%

**Q:** Would you mind doing CC(CN1CCOC1=O)NC(=O)c1cccc(Cl)c1Cl (stereo not drawn) as well?
**A:** -4.07%

**Q:** Next molecule: `CC(C)(C)c1nnc(CNc2c(F)cccc2-n2cccn2)o1`
**A:** -8.76%

**Q:** COC(=O)C(NC(=O)C(C)C)c1cc(F)ccc1F (stereo not drawn) , same question.
**A:** -20.7%

**Q:** And the next one, Cc1cccc(C2CCCCCN2Cc2cn(C)nc2C)c1 (stereo not drawn) ?
**A:** -9.15%

**Q:** Continue with CCCc1n[nH]c(C2CN(C(=O)CCCn3cccn3)CCO2)n1 (stereo not drawn)
**A:** -7.13%

**Q:** Would you kindly repeat that for `O=C(CCn1cccn1)NCCOc1cccc(Cl)c1` ?
**A:** -7.23%

**Q:** Please answer likewise for `Cc1cccc(CC(=O)NS(=O)(=O)c2ccc(F)c(F)c2)c1`
**A:** 8.16%

**Q:** Input `CC(C)c1nc2cc(NC(=O)c3n[nH]c4c3CCC4)ccc2n1C`
**A:** -9.08%
